pIC50 listing for selected molecules.
- Tested on: Aβ production in 293 751 SWE and CHO 751 SWE cells (transfected with APP-751 Swedish mutation)
- Experiment description: Aβ production inhibition activity in cells (Aβ ELISA of conditioned media, normalized for cytotoxicity by MTT)
- Type: cell-based
- Setup conditions: 2 h pretreatment + 2 h incubation
pIC50: −log10 of the molar value.
Quantity kind: pIC50

INSERT INTO measurements (smiles_input, experimental_result) VALUES
  ('CC(C)(C)c1ccccc1Oc1ccc(NC(=S)Nc2ccccc2C(F)(F)F)cc1', 4.86),
  ('O=C(Nc1ccc(Sc2ccc(Cl)c(Cl)c2)cc1)Nc1ccc(Cl)c(Cl)c1', 5.21),
  ('CCCCCCNC(=S)N(O)Cc1cccc(Oc2ccc(C(C)(C)C)cc2)c1', 5.03),
  ('CCC(C)(C)c1ccc(OCc2ccc(CN(O)C(=S)NCc3ccccc3)cc2)cc1', 5.00);
